# System Tested: FGFR3 (UniProt P22607)
# Sequence (P22607 whole entry, looked up): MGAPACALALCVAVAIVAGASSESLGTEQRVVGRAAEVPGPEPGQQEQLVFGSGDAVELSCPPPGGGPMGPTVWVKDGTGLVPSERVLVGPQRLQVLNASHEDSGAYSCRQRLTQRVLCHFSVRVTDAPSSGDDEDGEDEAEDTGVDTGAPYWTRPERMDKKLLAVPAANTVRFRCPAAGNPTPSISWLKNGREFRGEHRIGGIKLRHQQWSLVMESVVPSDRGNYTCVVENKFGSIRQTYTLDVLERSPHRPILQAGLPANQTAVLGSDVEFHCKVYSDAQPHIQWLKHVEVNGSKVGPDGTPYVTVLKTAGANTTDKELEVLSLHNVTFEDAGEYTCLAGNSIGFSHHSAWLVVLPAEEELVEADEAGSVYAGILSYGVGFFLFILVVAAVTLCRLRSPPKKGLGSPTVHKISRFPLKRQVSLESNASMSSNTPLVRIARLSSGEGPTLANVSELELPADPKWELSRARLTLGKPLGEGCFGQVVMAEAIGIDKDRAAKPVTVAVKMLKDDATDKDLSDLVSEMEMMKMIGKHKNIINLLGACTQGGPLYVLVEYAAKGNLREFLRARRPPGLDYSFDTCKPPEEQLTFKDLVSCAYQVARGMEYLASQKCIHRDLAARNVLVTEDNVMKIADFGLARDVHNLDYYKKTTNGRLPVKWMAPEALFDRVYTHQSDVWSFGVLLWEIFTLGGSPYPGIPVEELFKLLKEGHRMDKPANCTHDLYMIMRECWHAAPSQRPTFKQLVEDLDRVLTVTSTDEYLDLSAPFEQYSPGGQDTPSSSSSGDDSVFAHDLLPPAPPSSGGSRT
# Test Name: phosphorylation enrichment, bacterial display (enrichment ratio); higher = better substrate or ligand; peptides without Tyr show the background
Endpoint: phosphorylation enrichment
Answers are plain numbers.

Record excerpt, results attached:
- Biopolymer Sequence: "LIFVSYDDWDY [GRIN2A_Y281_S278F]"
  Observed Value: 1.77
- Biopolymer Sequence: "TLQIMYGCDVG [HLA-A_Y123_I119L]"
  Observed Value: 0.887
- Biopolymer Sequence: "PVADRYDQSFE [MAPK14_Y323_P322R]"
  Observed Value: 0.796
- Biopolymer Sequence: "VIDGKYAFKPK [GTF2E2_Y137]"
  Observed Value: 0.329

Give one value of phosphorylation enrichment per listed sequence.
1. TLLERYGMTKI [ACSF3_Y355_E359K]
2. NKHTTYTMEHI [ACTN1_Y708_N707T]
3. LQLLGDRPVYS [CHST6_Y358_Y358D]
4. RRIHSYRCHLW [VHL_Y112_G114C]
5. SSNLYYRCLTA [CNGA3_Y169_W171C]
6. RMDGTYACSYT [FLNB_Y704]
7. NLPGGYSGSVK [MCPH1_Y606]
8. EILLSDLRTGF [TGM1_Y365_Y365D_YF]

Result:
0.667
0.445
1.64
0.641
1.13
0.579
0.425
0.56

Give one value of phosphorylation enrichment per listed sequence.
1. HFPFQCHRQLY [F12_Y53_Y53C]
2. TSNQEYLDLSM [FGFR1_Y766]
3. CTTIHYNFMCF [TP53_Y234_N239Y_YF]
4. QTPVLYTMLDH [MPZ_Y220_A221T]
5. WFPANYVKLLN [ITSN1_Y1132_S1137N]
6. SYCYRYRCAAQ [SUMF1_Y344_R349Q]

Result:
0.564
1.17
0.738
3.51
0.76
0.464

Give one value of phosphorylation enrichment per listed sequence.
1. MEKEKYVSYIS [JMJD1C_Y596]
2. STSKTYVISQT [RBBP6_Y87_R91Q]
3. LSSETYVKSYT [F5_Y2149_M2148T]

Result:
1. 0.672
2. 0.429
3. 0.582

###

# System Tested: Grb2 SH2 (UniProt P62993)
# Sequence (P62993 whole entry, looked up): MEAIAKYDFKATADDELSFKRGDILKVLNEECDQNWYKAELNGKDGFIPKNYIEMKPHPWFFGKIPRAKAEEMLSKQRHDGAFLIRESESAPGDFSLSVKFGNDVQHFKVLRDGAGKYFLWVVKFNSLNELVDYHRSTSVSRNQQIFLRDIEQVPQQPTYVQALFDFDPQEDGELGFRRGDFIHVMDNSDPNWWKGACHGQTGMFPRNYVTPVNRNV
# Test Name: SH2 binding enrichment of the phosphorylated peptide, bacterial display (enrichment ratio); higher = better substrate or ligand; peptides without Tyr show the background
Endpoint: SH2 binding enrichment
Give bare numbers.

Record excerpt, results attached:
- Biopolymer Sequence: "RTVPLYESLRK [DDB1_Y718_P721L]"
  Observed Value: 1.04
- Biopolymer Sequence: "GDAMLYYPSVS [GPR143_Y177_A173D]"
  Observed Value: 0.825
- Biopolymer Sequence: "KNKELYSDLFD [PDE10A_Y300]"
  Observed Value: 1.04
- Biopolymer Sequence: "CTTIRYNYMCN [TP53_Y234_H233R]"
  Observed Value: 1.48
- Biopolymer Sequence: "NEKNIYRVPLM [BMPR2_Y247]"
  Observed Value: 0.864

Give one value of SH2 binding enrichment per listed sequence.
1. GDPTEYYSTAI [IGSF22_Y501]
2. SVMAEYGLFRA [VSX2_Y219_G223R_YF]

Result:
1: 0.959; 2: 0.773

Give one value of SH2 binding enrichment per listed sequence.
1. DDEVFYSPRSL [OTC_Y317]
2. ARSHIYTLASC [MEFV_Y741_F743L]
3. KLSFSYGQALQ [ALDOB_Y302_R304Q]
4. TLLERYGMTKI [ACSF3_Y355_E359K]

Result:
[0.774, 0.965, 0.861, 0.884]
